System: SF-268 CNS
protocol.notes: NCI tumour cell line growth inhibition, 48 h
readout: TGI

Req: Looking for the measured TGI of CCOC(=O)C1=C(C)N(c2ccc(C)cc2)C2(O)C=CC(=O)C3=C(O)c4ccccc4C(=O)C312 (stereo not drawn) , can you help?
Resp: > 100 µM

Req: Name the reported TGI value associated with the molecule N=C1C(c2nc(-c3ccc(Br)cc3)cs2)=C(O)CN1CC1CCCO1 (stereo not drawn)
Resp: > 100 µM

Req: What value of measured TGI is listed for O=S1(=O)CC(Br)C(Br)C1 (stereo not drawn) ?
Resp: > 100 µM

Req: Fill in the blank: the reported TGI of Cn1c(O)c(N=NC(N)=S)c2ccccc21 is ____.
Resp: > 100 µM

Req: GET /values?readout=TGI&item= CN(C)c1ccc(N=C(C#N)c2nc(N)nc(N3CCN(c4ccccc4)CC3)n2)cc1
Resp: 34.9 µM

Req: Would you mind telling me what TGI value was observed for COc1cc(C2(C)SCCCS2)c(I)c(OC)c1OC ?
Resp: > 100 µM

Req: Item under review: C=Cc1cnc([N+](=O)[O-])n1C . Reported TGI?
Resp: > 100 µM

Req: Reported TGI for CC[C@H](C)[C@H](NC(=O)c1nccn1C)C(=O)N(C)[C@H](C[C@@H](OC(C)=O)c1nc(C(=O)N[C@@H](Cc2ccccc2)C[C@H](C)C(=O)OC)cs1)C(C)C : what is it?
Resp: > 33.3 µM

Req: Which value of TGI has been reported for O=C(O)Cc1cc(=O)[nH]c2c1C(=O)CCC2 in the records?
Resp: > 100 µM

Req: Quick one: TGI of CN(CCN(C)C(=O)CCn1ccc(=O)[nH]c1=O)C(=O)CCn1ccc(=O)[nH]c1=O ?
Resp: > 100 µM

Req: State the recorded TGI for this entry: NC(=S)N/N=C\c1nccc2c(C(F)(F)C(F)(F)C(F)(F)F)cccc12
Resp: 4.22 µM

Req: I am curious: what TGI value has been reported for c1ccc(COc2cccc3cccnc23)cc1 ?
Resp: 88.4 µM

Req: What value of TGI has been reported for the following molecule? O=C(Nc1nc(C23CC4CC(CC(C4)C2)C3)cs1)c1cc2cc([N+](=O)[O-])ccc2oc1=O
Resp: > 100 µM

###

Kindly supply the reported TGI values for the records listed here.
Test system: COLO 205 colon
protocol.notes: NCI tumour cell line growth inhibition, 48 h

Req: Data request, read-out TGI, for CCCC(=O)Nc1cc(/C=C/C(=O)N2C[C@H]3C[C@@]34C2=CC(=O)c2[nH]cc(C)c24)n(C)c1
Resp: 0.281 µM

Req: Sample CSC1NNC2(C(=O)N1)c1ccccc1-c1ccccc12 (stereo not drawn) — what was its TGI?
Resp: > 10 µM

Req: Sample CN1N=Nc2c(C(F)(F)F)nn(-c3ccccc3)c2N(C)C1=O — what was its TGI?
Resp: > 70.4 µM

###

Test system: A549 NSCLC
protocol.notes: NCI tumour cell line growth inhibition, 48 h
Can you tell me TGI for the items I'm about to list?

Req: What value of measured TGI is listed for O=C(O)c1cc2c(c3ccsc13)-c1ccccc1CC2 ?
Resp: > 100 µM

Req: Reported TGI for Cn1c(O)c(N=NC(N)=S)c2ccccc21 : what is it?
Resp: > 100 µM

Req: What measured TGI goes with Cc1cc(C)c2c(c1)CC1(Cc3c(C)cc(C)cc3C1=O)C2=O (stereo unspecified) ?
Resp: > 100 µM

Req: Which value of TGI has been reported for CC(=O)Nc1cc2cc(NS(=O)(=O)c3cc(C(F)(F)F)cc(C(F)(F)F)c3)ccc2oc1=O in the records?
Resp: > 100 µM

Req: Any idea what TGI was measured for O=C(NCc1ccccc1)c1c(O)c2ccccc2[nH]c1=O ?
Resp: > 100 µM

Req: For the compound Cc1ccc(S(=O)(=O)c2ccsc2N)cc1 , what TGI is on record?
Resp: > 100 µM

###

Assign GI50 to each entry below.
System: HCC-2998 colon
protocol.notes: NCI tumour cell line growth inhibition, 48 h

Req: Which GI50 value belongs to S=C(Nc1ccccc1)N1CCn2c1nsc2=Nc1ccccc1 ?
Resp: > 100 µM

Req: Item FC(F)(F)c1cc(NC2=NCCN=C(Nc3cc(C(F)(F)F)cc(C(F)(F)F)c3)SS2)cc(C(F)(F)F)c1 has what recorded GI50?
Resp: 6.15 µM

Req: Consider the compound shown here: C=C(C)[C@@H]1CC[C@]2(C)[C@H](CC=C3[C@@H]4[C@H](C)[C@@H](C)CC[C@]4(CO)CC[C@]32C)[C@@]1(C)CCCN What is its recorded GI50?
Resp: 0.873 µM

Req: Return reported GI50; argument: N#CC1CCc2c(c(-c3cn[nH]c3C(F)(F)F)nc3c(F)cc4[nH]ncc4c23)C1 (stereo unspecified)
Resp: 11 µM

Req: Name the reported GI50 value associated with the compound CCN(CC)CCOc1nc2cc(OC)c(OC)cc2c2c1-c1ccc(OC)cc1C2=O
Resp: 14.3 µM

Req: Give its GI50 value. Item: CCC1OC(/C(C)=C/C(C)/C=C/C2C(C)C2/C=C/C2OC(CC(=O)O)CC(O)C2O)CC=C1C (stereo unspecified)
Resp: > 50 µM

###

System: LOX IMVI melanoma
protocol.notes: NCI tumour cell line growth inhibition, 48 h
readout: GI50

Req: GI50 lookup needed for N#Cc1ncc(N2C(=O)C3(CCC3)N(c3ccc(OC4CCNCC4)nc3)C2=S)cc1C(F)(F)F , thanks.
Resp: 11.2 µM

Req: So what does the record say about GI50 for NC1CCCCC1N.O=S(=O)([O-])CCCN1CCN(CCO)CC1.O=S(=O)([O-])CCCN1CCN(CCO)CC1.[Pt+4] ?
Resp: 5.97 µM

Req: Give the measured GI50 of O=C(Nc1cccc([N+](=O)[O-])c1)c1cc2ccccc2cc1O .
Resp: 1.87 µM

###

Tested on: HL-60(TB) leukemia
protocol.notes: NCI tumour cell line growth inhibition, 48 h
readout: GI50

Req: Give its GI50 value. Item: Cc1cc(Cl)ccc1NC(=O)NC(C)(C)COC(=O)Nc1cccc(Cl)c1
Resp: 9.71 µM

Req: Any idea what its GI50 is? The molecule is O=S1(=O)CC(Br)C(Br)C1 (stereo unspecified)
Resp: 3.5 µM

Req: Reported GI50, molecule Cc1nn2c(/C=C3\C(=O)Nc4ccccc43)c(C)nc2s1 : ____
Resp: 21 µM

Req: Given the entry Cc1cc(S(=O)(=O)Nc2nc3cc(-c4ccsc4)sc3c(=O)n2N)c(S)cc1Cl , report its measured GI50.
Resp: > 100 µM

Req: Field request: GI50 | item: N=C1C(c2nc(-c3ccc(Br)cc3)cs2)=C(O)CN1CC1CCCO1 (stereo unspecified)
Resp: > 100 µM

Req: Quick one: GI50 of Cc1ccc(/C=C2\CN(Cc3cn(CCNc4ccnc5cc(Cl)ccc45)nn3)C/C(=C\c3ccc(C)cc3)C2=O)cc1 ?
Resp: 2.23 µM

Req: Record request: GI50 value, item COc1cc(CNC(=O)CCSc2nc3ccccc3c(=O)n2Cc2cc(OC)c(OC)c(OC)c2)cc(OC)c1OC
Resp: 3.57 µM

Req: For O[C@H](CN1CC1)[C@@H](O)CN1CC1 , what is its reported GI50?
Resp: 1.22 µM

Req: Item O=C(O)c1cc2c(c3ccsc13)-c1ccccc1CC2 has what recorded GI50?
Resp: 37.5 µM

Req: Using the record for CC(C)(F)C[C@H](N[C@@H](c1ccc(-c2ccc(S(C)(=O)=O)cc2)cc1)C(F)(F)F)C(=O)NC1(C#N)CC1 , report its GI50.
Resp: > 100 µM

Req: Request the reported GI50 associated with COc1cc(/C=C/c2cc(/C=C/c3ccc(O)c(OC)c3)[nH]c(=O)n2)ccc1O
Resp: 3.74 µM

Req: Request the reported GI50 associated with O=c1oc2cc(OS(=O)(=O)c3ccccc3)ccc2c2c1CCCCC2
Resp: 2.05 µM

Req: Reported GI50 for CC[C@H](C)[C@H](NC(=O)c1nccn1C)C(=O)N(C)[C@H](C[C@@H](OC(C)=O)c1nc(C(=O)N[C@@H](Cc2ccccc2)C[C@H](C)C(=O)OC)cs1)C(C)C : what is it?
Resp: 0.642 µM

Req: For the molecule S=C(Nc1ccccc1)N1CCn2c1nsc2=Nc1ccccc1 , what GI50 is on record?
Resp: > 100 µM

Req: For the molecule N#Cc1ccc2c(c1)C(=O)c1c-2n(CCCN=[N+]=[N-])c(=O)c2cc([N+](=O)[O-])ccc12 , what GI50 is on record?
Resp: > 50 µM

Req: Fill in: GI50 of N#Cc1ncc(N2C(=O)C3(CCC3)N(c3ccc(OC4CCNCC4)nc3)C2=S)cc1C(F)(F)F is ___
Resp: 12.1 µM
